molecular target: UniProt:P35414; assay: antagonism across CCR6, APJ and CXCR6 receptors, profiling panel, selectivity assay for CXCR6 antagonist project, cell-based, CHO-K1 PathHunter beta-arrestin, luminescence, set 3 (AID 651708); details: antagonist mode, APJ, mean of runs
Sequence (P35414 whole entry, looked up): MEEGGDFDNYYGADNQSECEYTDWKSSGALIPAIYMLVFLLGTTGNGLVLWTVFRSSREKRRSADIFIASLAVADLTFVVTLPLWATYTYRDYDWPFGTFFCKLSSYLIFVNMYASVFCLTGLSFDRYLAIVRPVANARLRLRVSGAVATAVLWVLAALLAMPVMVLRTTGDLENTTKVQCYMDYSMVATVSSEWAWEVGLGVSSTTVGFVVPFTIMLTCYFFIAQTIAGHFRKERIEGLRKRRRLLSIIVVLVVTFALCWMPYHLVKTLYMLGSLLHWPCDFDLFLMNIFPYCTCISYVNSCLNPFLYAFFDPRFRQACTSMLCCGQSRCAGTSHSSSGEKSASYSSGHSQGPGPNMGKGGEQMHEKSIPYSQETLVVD
Calls of active or inactive are those of the source.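 The calls were made as follows: active = compound with IC50 above 30 µM at both the APJ and CCR6 off-target receptors, and at most 10 µM at CXCR6; inactive = the rest.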
Field 'call' accepts true for active, false for inactive

Request: GET /call?item= COc1cccc(C(=O)NC2CC3CCCC(C2)N3CC(=O)Nc2ccc(Cl)cc2)c1 (stereo not given) returns the recorded outcome of this test.
Response: false

Request: GET /call?item= COc1ccc(NC(=O)CN2C3CCCC2CC(NC(=O)c2cc(OC)cc(OC)c2)C3)cc1 (stereo not given) returns the recorded outcome of this test.
Response: false

Request: GET /call?item= COc1ccc(NC(=O)CN2C3CCCC2CC(NC(=O)c2cccc(OC)c2)C3)cc1 (stereo not given) returns the recorded outcome of this test.
Response: false

Request: GET /call?item= COc1ccc(C(=O)NC2CC3CCCC(C2)N3CC(=O)Nc2ccc(C)cc2)cc1 (stereo not given) returns the recorded outcome of this test.
Response: false

Request: GET /call?item= COc1ccc(CN2C3CCCC2CC(NC(=O)c2cc(OC)c(OC)c(OC)c2)C3)cc1 (stereo not given) returns the recorded outcome of this test.
Response: true

Request: GET /call?item= COc1ccc(NC(=O)CN2C3CCCC2CC(NC(=O)c2ccc4c(c2)OCO4)C3)cc1 (stereo not given) returns the recorded outcome of this test.
Response: false

Request: GET /call?item= COc1ccc(C(=O)NC2CC3CCCC(C2)N3CC(=O)Nc2ccc(C)cc2)cc1OC (stereo not given) returns the recorded outcome of this test.
Response: false

Request: GET /call?item= O=C(CN1C2CCCC1CC(NC(=O)c1ccc3c(c1)OCO3)C2)Nc1ccc(F)cc1 (stereo not given) returns the recorded outcome of this test.
Response: false

Request: GET /call?item= O=C(CN1C2CCCC1CC(NC(=O)c1ccccc1)C2)Nc1ccccc1 (stereo not given) returns the recorded outcome of this test.
Response: false

Request: GET /call?item= O=C(CN1C2CCCC1CC(NC(=O)c1ccc3c(c1)OCO3)C2)Nc1ccccc1 (stereo not given) returns the recorded outcome of this test.
Response: false
